- tested_target: PMPMEase (EPL, esterase from porcine liver) (Sus scrofa, UniProt Q29550)
- Sequence (Q29550 19-566): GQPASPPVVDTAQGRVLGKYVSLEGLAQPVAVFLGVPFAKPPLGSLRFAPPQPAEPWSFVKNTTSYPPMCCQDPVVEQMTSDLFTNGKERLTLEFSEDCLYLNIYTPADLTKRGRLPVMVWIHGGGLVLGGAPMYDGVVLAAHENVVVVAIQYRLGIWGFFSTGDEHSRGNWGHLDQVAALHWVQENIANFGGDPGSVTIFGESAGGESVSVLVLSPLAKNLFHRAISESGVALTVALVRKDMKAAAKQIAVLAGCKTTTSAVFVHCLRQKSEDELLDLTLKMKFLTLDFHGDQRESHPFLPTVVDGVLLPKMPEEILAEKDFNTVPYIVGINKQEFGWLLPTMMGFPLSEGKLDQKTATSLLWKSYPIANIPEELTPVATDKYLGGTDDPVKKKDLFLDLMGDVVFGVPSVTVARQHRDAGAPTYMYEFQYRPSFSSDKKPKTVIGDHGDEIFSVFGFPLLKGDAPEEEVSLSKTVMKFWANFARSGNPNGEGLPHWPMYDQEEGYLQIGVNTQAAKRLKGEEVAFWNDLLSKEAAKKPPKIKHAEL
- protocol_notes: HPLC product assay with UV detection, Michaelis-Menten fit
- Format: biochemical
property_label: Km (µM)
The response must be a number in µM with no trailing unit.

query: Requested field: Km. Item: `COC(=O)[C@H](CSC/C=C(\C)CCC=C(C)C)NC(=O)c1ccc([N+](=O)[O-])cc1`
result: 87

query: Given `CC(C)=CCC/C(C)=C/CC/C(C)=C/CSC[C@H](NC(=O)c1ccc([N+](=O)[O-])cc1)C(=O)OC(C)C` , state its recorded Km.
result: 5.9

query: Given the entry `COC(=O)[C@H](CSCC[C@H](C)CCC=C(C)C)NC(=O)c1ccc([N+](=O)[O-])cc1` , report its measured Km.
result: 53

query: Give its Km value. Item: `CCOC(=O)[C@H](CSC/C=C(\C)CC/C=C(\C)CCC=C(C)C)NC(=O)c1ccc([N+](=O)[O-])cc1`
result: 11

query: Returns the measured Km for the input compound. Input: `COC(=O)[C@H](CSC/C=C(\C)CC/C=C(\C)CC/C=C(\C)CCC=C(C)C)NC(=O)c1ccc([N+](=O)[O-])cc1`
result: 15

query: Please look up its Km: `COC(=O)[C@H](CSC/C=C(\C)CC/C=C(\C)CCC=C(C)C)NC(=O)CNC(=O)c1ccc([N+](=O)[O-])cc1`
result: 8.4

query: Request the reported Km associated with `COC(=O)[C@@H](CSC/C=C(\C)CC/C=C(\C)CCC=C(C)C)NC(C)=O`
result: 21

query: Which Km is reported for this compound? `CCSC[C@H](NC(=O)c1ccc([N+](=O)[O-])cc1)C(=O)OC`
result: 505

query: Dear colleague, I am looking for the recorded Km of the following compound: `COC(=O)[C@H](CSCCC(C)C)NC(=O)c1ccc([N+](=O)[O-])cc1`
result: 960

query: Endpoint output: Km of `COC(=O)[C@H](CSC/C=C(\C)CC/C=C(\C)CCC=C(C)C)NC(=O)c1ccc([N+](=O)[O-])cc1` . Value?
result: 29

query: Looking for the measured Km of COC(=O)CNC(=O)c1ccc([N+](=O)[O-])cc1 [L-102, methyl 2-(4-nitrobenzamido)acetate] , can you help?
result: 400

query: # query: Km of entry `COC(=O)[C@H](CSCc1ccccc1)NC(=O)c1ccc([N+](=O)[O-])cc1`
result: 40.5

query: I'd like to know its Km. The compound in question is `COC(=O)[C@H](CSCC=C(C)C)NC(=O)c1ccc([N+](=O)[O-])cc1`
result: 294

query: // query Km value for entry `COC(=O)[C@H](CSCC[C@@H](C)CCC=C(C)C)NC(=O)c1ccc([N+](=O)[O-])cc1`
result: 56

query: Using the record for `COC(=O)[C@H](C)NC(=O)c1ccc([N+](=O)[O-])cc1` , report its Km.
result: 300

query: Which Km is reported for this compound? `COC(=O)[C@@H](CSC/C=C(\C)CC/C=C(\C)CCC=C(C)C)NC(=O)c1ccc([N+](=O)[O-])cc1`
result: 11
